Source of measurements: paper PMC10145437

system: MDA-MB-231/R cells (cisplatin-resistant); assay: MTT assay (cell viability); assay type: cell-based, human; conditions: cell viability, MTT assay, 72 h incubation, n = 4
READOUT_NAME: IC50 (µM)
Unit µM implied. Number only.

Sample NCCCCNCCCN.NCCCCNCCCN.[Cl][Pd][Cl].[Cl][Pd][Cl].[Cl][Pd][Cl] ; IC50 observed: 11.4

* * *

system: MDA-MB-231 cells; assay: MTT assay (cell viability); format: cell-based, human; details: 24 h incubation, n = 4
READOUT_NAME: pIC50
// pIC50 is dimensionless: -log10 of concentration (M)

Sample NCCCCNCCCN.NCCCCNCCCN.[Cl][Pd][Cl].[Cl][Pd][Cl].[Cl][Pd][Cl] ; pIC50 observed: 5.05

* * *

test system: MDA-MB-231/R cells (cisplatin-resistant); test: Cell proliferation evaluation (label-free image cell counting); assay type: cell-based, human; details: suppression of cell proliferation, 72 h incubation, n = 4
READOUT_NAME: pIC50
// pIC50 is dimensionless: -log10 of concentration (M)

Sample NCCCCNCCCN.NCCCCNCCCN.[Cl][Pd][Cl].[Cl][Pd][Cl].[Cl][Pd][Cl] ; pIC50 observed: 4.97

* * *

Entries annotated with measured IC50
tested on: MCF-12A cells (non-cancerous breast cells); test: Cell proliferation evaluation (label-free image cell counting); assay type: cell-based, human; details: suppression of cell proliferation, 48 h incubation, n = 4; read-out: IC50 against MCF-12A cells
Unit µM implied. Number only.

N.N.[Cl][Pt][Cl] [cisplatin, cis-dichlorodiammine platinum(II)] : 1

Proceed to the following item.
Sample NCCCCNCCCN.NCCCCNCCCN.[Cl][Pd][Cl].[Cl][Pd][Cl].[Cl][Pd][Cl] ; IC50 observed: 53
